B1: VH:VL chains; a variant is named by its letters at X, in order (parent)
chain 1: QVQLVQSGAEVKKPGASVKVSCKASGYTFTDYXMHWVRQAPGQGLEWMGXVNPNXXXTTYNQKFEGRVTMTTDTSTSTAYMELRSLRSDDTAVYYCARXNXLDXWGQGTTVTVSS
chain 2: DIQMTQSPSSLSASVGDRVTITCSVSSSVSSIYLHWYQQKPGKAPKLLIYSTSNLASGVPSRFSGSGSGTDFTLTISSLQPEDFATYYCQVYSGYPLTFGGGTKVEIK

variants of: B1; experiment: yeast display scFab, FACS + sequencing

mutation | non-specific binding call
FEKEADAF | binds
VRGKGSGF | binds
VKEGGDVV | no binding
SETTDAGD | no binding
VRKGGSGV | binds
VKGRGVVD | binds
FRARSAAV | binds
YAEESDGS | no binding
FAGRGVGD | binds
FKGEDAVA | no binding
YKTRGAGD chain 1 Q43R | no binding
VRKGGSLD | binds
VTTKSAVA | no binding
FRGRDFSA | binds
VRGGGDAA | no binding
YRRGSASD | binds
VAGTGDLY | no binding
FKRGSSLD | binds
DTGTGSGA | no binding
VRAGDDGS | no binding
SEARSAWS | no binding
FAGRGSAD | binds
DTERGSLV | no binding
SEARSAVV | no binding
DTKAAAGD | no binding
SKGRSDVV | no binding
VKGKSSWS | binds
AAGRGFLD | no binding
FRGGGAVA | binds
YTEGDDGD | no binding
VRGTGYAS | binds
SRTRGFVV | binds
YTGEDDVY | no binding
VGGTSSSS | no binding
YRAKSSGV | binds
FRGGASSD | binds
YKGRGYGA | binds
VRTGAVGD | binds
YKTGGASS | binds
YRREGSVV | binds
VEAGDSSA | no binding
YRRRGASS | binds
YAGRGDGA | no binding
VGGTSDVF | no binding
VKGRGSAD | binds
FKKGSSLD | binds
SEKGGSSA | no binding
YRARGSVF | binds
YRAGDSSS | no binding
YKGKGSGS | binds
YRGRGSWY | binds
VKGRADWA | no binding
YREKAAWA | binds
ATTKSAVA | no binding
VTEGGDVY | no binding
YEGGADVD | no binding
YRRGAAAA | binds
YRGEAFLY | binds
VRGRGFAA | binds
DKTKGDWV | no binding
YAGRSFGS | binds
YGETGDSV | no binding
YRKGDSGD | binds
YGAKGDGV | no binding
VTGGDSVD | no binding
YKGEGDLV | no binding
VTGRGDVF | no binding
SEARSDSV | no binding
SKAKGSGV | binds
DRGGSSAA | no binding
DRAGDYLY | no binding
YRARGSSS | binds
AARETVGA | binds
DAEEDAGY | no binding
DAGAAAGD | no binding
DRAGDALD | no binding
YRGRDASS | no binding
VEGTSSLD | no binding
FRGRGSSA | binds
YRARGVVV | binds
STAESDLD | no binding
VTGTGDWV | no binding
